Origin of measurements: the NIST ThermoML archive (doi:10.1021/je900550v)

The molecules listed here are annotated with their mass density.
settings: 310.65 K; 101.33 kPa; Liquid; Vibrating tube method
Dear colleague, please return just the value in kg/m3, with no unit written.

Some solved cases for reference:
>  <molecule>
CCCCC(=O)[O-].C[NH2+]CCO [2-hydroxy-N-methylethanaminium pentanoate]

>  <valueMeasured>
1007.82

$$$$
>  <molecule>
CC(=O)[O-].C[NH2+]CCO [N-methyl-2-hydroxyethylammonium acetate]

>  <valueMeasured>
1093.31

$$$$
>  <molecule>
C[NH2+]CCO.O=C[O-] [2-hydroxy-N-methylethanaminium formate]

>  <valueMeasured>
1121.27

$$$$
>  <molecule>
CCCC(=O)[O-].C[NH2+]CCO [N-methyl-2-hydroxyethylammonium butanoate]

>  <valueMeasured>
1030.85

$$$$

Data point: CCC(=O)[O-].C[NH2+]CCO [2-hydroxy-N-methylethanaminium propionate] ; mass density = 1063.15

Data point: CC(C)C(=O)[O-].C[NH2+]CCO [2-hydroxy-N-methylethanaminium isobutyrate] ; mass density = 1035.29
